Exercise: state measured cell viability for each of the compounds provided.
System: WHIM2 (cells of a triple-negative basal-like breast cancer xenograft);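 also: cells dissociated from PDX tumors propagated in female NSG mouse mammary fat pads, vehicle control 0.1% DMSO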
assay-text: cell viability (% of vehicle); higher = less cytotoxic
condition-description: 1 µM; 72 h
Answer field: number only, no words.

# cell viability of COc1ccc2cc1Oc1ccc(cc1)CC1c3c(cc4c(c3Oc3cc5c(cc3OC)CCN(C)C5C2)OCO4)CCN1C (centres undefined) [Cepharanthine] = 80.7

For reference, reported cell viability for CC[C@H](C)[C@H]1O[C@]2(CC[C@@H]1C)C[C@@H]1C[C@@H](C/C=C(\C)[C@@H](O[C@H]3C[C@H](OC)[C@@H](O[C@H]4C[C@H](OC)[C@@H](O)[C@H](C)O4)[C@H](C)O3)[C@@H](C)/C=C/C=C3\CO[C@@H]4[C@H](O)C(C)=C[C@@H](C(=O)O1)[C@]34O)O2 [Ivermectin] stands at 86.6

Recorded result, COc1cc(C(=O)O)ccc1NC(=O)C1NC(CC(C)(C)C)C(C#N)(c2ccc(Cl)cc2F)C1c1cccc(Cl)c1F (centres undefined) , cell viability: 99.1

Per the record, Cc1ccc(C(=O)N(CCCN)C(c2nc3cc(Cl)ccc3c(=O)n2Cc2ccccc2)C(C)C)cc1 (centres undefined) has cell viability of 62.5

Value of cell viability reported for the compound Clc1ccc(C(Cn2ccnc2)OCc2ccsc2Cl)c(Cl)c1 (centres undefined) [Tioconazole] is 111

Entry under test: CC1=C(C(=O)OC(C)C)C(c2cccc([N+](=O)[O-])c2)C(C(=O)OC2CN(C(c3ccccc3)c3ccccc3)C2)=C(N)N1 (centres undefined) [Azelnidipine] . Its cell viability was 85.9

# cell viability (compound: COc1cc2c(Nc3ccc(Br)cc3F)ncnc2cc1OCC1CCN(C)CC1 [Vandetanib (ZD6474)] ) is 37.5

Form field cell viability, entry Cl.Fc1ccc(C2CCNCC2COc2ccc3c(c2)OCO3)cc1 (centres undefined) [Paroxetine HCl] : 100

Memo: C=C(c1ccc(C(=O)O)cc1)c1cc2c(cc1C)C(C)(C)CCC2(C)C [Bexarotene] , reported cell viability: 91.9

The compound COc1cc2ncnc(Nc3ccc(F)c(Cl)c3)c2cc1NC(=O)C=CCN1CCCCC1 showed cell viability equal to 43.9

Reported cell viability of CC[C@@]1(O)C(=O)OCc2c1cc1n(c2=O)Cc2cc3c(CN(C)C)c(O)ccc3nc2-1 [Topotecan] : 56.5

Entry CCc1cnn2c(NCc3ccc[n+]([O-])c3)cc(N3CCCCC3CCO)nc12 (centres undefined) , cell viability reported as 38.1

response.value for CC[C@@H]1/C=C(\C)C[C@H](C)C[C@H](OC)[C@H]2O[C@@](O)(C(=O)C(=O)N3CCCC[C@H]3C(=O)O[C@H](/C(C)=C/[C@@H]3CC[C@H](Cl)[C@H](OC)C3)[C@H](C)[C@@H](O)CC1=O)[C@H](C)C[C@@H]2OC [Pimecrolimus] (field: cell viability) = 82.4

Per the records, this compound ( CC(=O)c1cc2c(o1)C(=O)c1ccccc1C2=O [Napabucasin] ) has cell viability equal to 50.3

---

Test system: HCI03 (cells of an ER-positive luminal breast cancer xenograft)
assay-text: cell viability (% of vehicle); higher = less cytotoxic
condition-description: 10 µM; 72 h
assay-readout: cell viability
// no unit string in output, number only

Recorded cell viability (molecule O=C(Nc1cccc2c(=O)cc(-c3nn[nH]n3)oc12)c1ccc(OCCCCc2ccccc2)cc1 ): 97.5

Item: OC(Cn1cncn1)(Cn1cncn1)c1ccc(F)cc1F [Fluconazole hydrate] | cell viability: 109

molecule O=C1C=CC=CC1=C1NC(=C2C=CC=CC2=O)N(c2ccc(C(=O)O)cc2)N1 , cell viability observed: 129

Memo: O=C([O-])c1cc(=O)c2c(OCC(O)COc3cccc4oc(C(=O)[O-])cc(=O)c34)cccc2o1.[Na+].[Na+] [Cromolyn sodium] , reported cell viability: 135

---

System: HCI16 (cells of a triple-negative basal-like breast cancer xenograft)
assay-text: cell viability (% of vehicle); higher = less cytotoxic
condition-description: 10 µM; 72 h
assay-readout: cell viability
Returns: the value as a bare number; no unit string appended.

Per the record, CCC1OC(=O)CC(O)C(C)C(OC2OC(C)C(O)C(N(C)C)C2O)C(CCN2CC(C)CC(C)C2)CC(C)C(=O)C=CC(C)=CC1COC1OC(C)C(O)C(OC)C1OC (stereo not drawn) has cell viability of 102

Just so you know, measured cell viability for Cl.Cl.Clc1ccc(Nc2nnc(Cc3ccncc3)c3ccccc23)cc1 [Vatalanib (PTK787) 2HCl] came out at 76.5

The compound CCCNS(=O)(=O)Nc1ncnc(OCCOc2ncc(Br)cn2)c1-c1ccc(Br)cc1 showed cell viability equal to 91.8

So, CNCC(O)c1ccc(O)c(O)c1.O=C(O)C(O)C(O)C(=O)O (stereo not drawn) [Epinephrine Bitartrate] ? Its cell viability was 96.7

The compound listed as Cc1ccc(-c2cc(C(F)(F)F)nn2-c2ccc(S(N)(=O)=O)cc2)cc1 shows cell viability equal to 112

// sample CS(=O)(=O)Nc1ccc([N+](=O)[O-])cc1Oc1ccccc1 [Nimesulide] , its cell viability was 144

CS(=O)(=O)CCNCc1ccc(-c2ccc3ncnc(Nc4ccc(OCc5cccc(F)c5)c(Cl)c4)c3c2)o1.Cc1ccc(S(=O)(=O)O)cc1.Cc1ccc(S(=O)(=O)O)cc1 [Lapatinib Ditosylate] yielded cell viability of 61.8

cell viability reading for C#Cc1cccc(Nc2ncnc3cc(OCCOC)c(OCCOC)cc23)c1.Cl [Erlotinib Hydrochloride] : 100

cell viability recorded for this compound, CCC1(O)CC2CN(CCc3c([nH]c4ccccc34)C(C(=O)OC)(c3cc4c(cc3OC)N(C)C3C(O)(C(=O)OC)C(OC(C)=O)C5(CC)C=CCN6CCC43C65)C2)C1.O=S(=O)(O)O (stereo not drawn) [Vinblastine sulfate] , is 144

compound CC(=O)[N-]S(=O)(=O)c1ccc(N)cc1.[Na+] [Sulfacetamide Sodium] , cell viability observed: 79.7

The recorded cell viability for entry Nc1nc(F)nc2c1ncn2C1OC(COP(=O)(O)O)C(O)C1O (stereo not drawn) [Fludarabine Phosphate (Fludara)] equals 106

Looking up CCN1CCCC1CNC(=O)c1cc(S(N)(=O)=O)ccc1OC (stereo not drawn) [Levosulpiride] , I see its cell viability listed as 134

Looking up CN1CCN2c3ncccc3Cc3ccccc3C2C1 (stereo not drawn) , I see its cell viability listed as 114

---

Test system: HCI11 (cells of an ER-positive luminal breast cancer xenograft)
assay-text: cell viability (% of vehicle); higher = less cytotoxic
condition-description: 10 µM; 72 h
assay-readout: cell viability
Respond numerically, and do not add a unit to the figure.

According to the records, this compound O=C1NC(=O)C(c2ccccc2)(c2ccccc2)N1 displays cell viability of 108

According to the records, this compound O=C(NC(Cc1cc(=O)[nH]c2ccccc12)C(=O)O)c1ccc(Cl)cc1 (stereo not given) [Rebamipide] displays cell viability of 97

Value of measured cell viability for the entry COc1c(N2CCNC(C)C2)c(F)cc2c(=O)c(C(=O)O)cn(C3CC3)c12 (stereo not given) : 124

// Cc1cnc(C(=O)NCCc2ccc(S(=O)(=O)NC(=O)NC3CCCCC3)cc2)cn1 [Glipizide] : cell viability value = 108

Item: CNCCC(Oc1ccccc1C)c1ccccc1.Cl (stereo not given) [Atomoxetine HCl] | cell viability: 108

---

I'd appreciate it if you could supply cell viability values for the items below.
System: HCI16
assay-text: cell viability (% of vehicle); higher = less cytotoxic
condition-description: 10 µM; 72 h
Keep it simple and answer with nothing but the number.

Recorded cell viability (molecule CN(C(=O)CN(CCO)CC(=O)N(C)C(C)(C)Cc1ccccc1)C(C)(C)Cc1ccccc1 ): 83.1

Recorded cell viability (molecule O=C([O-])C(O)C(O)C(O)C(O)C(O)CO.O=C([O-])C(O)C(O)C(O)C(O)C(O)CO.[Ca+2] (centres undefined) [Calcium Gluceptate] ): 124

Form field cell viability, entry C#C[C@]1(O)CC[C@H]2[C@@H]3CCC4=CC(=O)CC[C@@H]4[C@H]3C(=C)C[C@@]21CC : 145

Entry COc1ccc(CN2CCN(C(c3ccc(F)cc3)c3ccc(F)cc3)CC2)c(OC)c1OC.Cl.Cl [Lomerizine HCl] ; cell viability = 87.8

---

Tested on: HCI03
assay-text: cell viability (% of vehicle); higher = less cytotoxic
condition-description: 10 µM; 72 h
Where a name gives a salt, the structure may show the parent alone.
Task for the reader: assign each of the following molecules its reported cell viability.
Quick one: just the number, no unit, thanks!

Summary line: Cc1cc(Nc2ncc(Cl)c(Nc3ccccc3S(=O)(=O)C(C)C)n2)c(OC(C)C)cc1C1CCNCC1 , HCI03, reported cell viability = 37.8

cell viability of CC(C)NCC(O)COc1ccc(COCCOC(C)C)cc1.O=C(O)C=CC(=O)O (stereo unspecified) [Bisoprolol fumarate] , assay on HCI03, is 129

Item: C=C[C@@H]1C[N@@]2CC[C@H]1C[C@@H]2[C@H](O)c1ccnc2ccc(OC)cc12 | System: HCI03 | cell viability: 135

Value (cell viability, HCI03) for record COC(=O)N=NC=C1C=[N+]([O-])c2ccccc2N1O = 116

For O=C1CCC(N2C(=O)c3ccccc3C2=O)C(=O)N1 (stereo unspecified) [Thalidomide] on HCI03, measured cell viability was 129

cell viability on HCI03 for CC(=O)N[C@H](Cc1ccc2ccccc2c1)C(=O)N[C@H](Cc1ccc(Cl)cc1)C(=O)N[C@H](Cc1cccnc1)C(=O)N[C@@H](CO)C(=O)N[C@@H](Cc1ccc(O)cc1)C(=O)N[C@H](CCCNC(N)=O)C(=O)N[C@@H](CC(C)C)C(=O)N[C@@H](CCCNC(=N)N)C(=O)N1CCC[C@H]1C(=O)N[C@H](C)C(N)=O is 131

Form: item O=C(O)C1=CC(=NNc2ccc([O-])c(C(=O)[O-])c2)C=CC1=O.[Na+].[Na+] [Olsalazine Sodium] ; test system HCI03; cell viability: 108

Value sought: cell viability, system HCI03, item C[N+](C)(C)CCOC(N)=O.[Cl-] [Carbamoylcholine chloride] . Result: 120

Record CN1CCN(c2cc3c(cc2F)c(=O)c(C(=O)O)cn3-c2ccc(F)cc2)CC1 [Difloxacin HCl] ; system HCI03; cell viability = 84.7

Log: HCI03, molecule CN1CCN2c3ncccc3Cc3ccccc3C2C1 (stereo unspecified) , cell viability = 149

The recorded cell viability with HCI03 for CC#CCn1c(N2CCCC(N)C2)nc2c1c(=O)n(Cc1nc(C)c3ccccc3n1)c(=O)n2C (stereo unspecified) was 108

The reported HCI03 cell viability of Cc1ccc(C(=O)c2cc(O)c(O)c([N+](=O)[O-])c2)cc1 is 52.5

Field cell viability (HCI03), entry Nc1ncn(C2CC(O)C(CO)O2)c(=O)n1 (stereo unspecified) : 140

Tested on HCI03, the item C=C1C(CO)C(O)CC1n1cnc2c(=O)nc(N)[nH]c21.O (stereo unspecified) [Entecavir Hydrate] showed cell viability equal to 104

The molecule NCCCCCC(=O)O , tested on HCI03, showed cell viability of 136

Form field cell viability for item NC(=O)Cc1cccc(C(=O)c2ccccc2)c1N on HCI03: 101

# Clc1ccc2nsnc2c1NC1=NCCN1 with HCI03: cell viability is 94.6

Measured cell viability (HCI03), entry C=CC(=O)N1CCCC(n2nc(-c3ccc(Oc4ccccc4)cc3)c3c(N)ncnc32)C1 (stereo unspecified) : 69

Record for CC1=C2N=C(C=C3N=C(C(C)=C4[N-]C(C)(C5N=C1C(C)(CCC(=O)NCC(C)OP(=O)([O-])OC1C(CO)OC(n6cnc7cc(C)c(C)cc76)C1O)C5CC(N)=O)C(C)(CC(N)=O)C4CCC(N)=O)C(C)(CC(N)=O)C3CCC(N)=O)C(C)(C)C2CCC(N)=O.[CH3-].[Co+3] (stereo unspecified) under target or system HCI03: cell viability reported as 132

Log: HCI03, molecule OCC1OC(Oc2ccc(O)cc2)C(O)C(O)C1O (stereo unspecified) , cell viability = 127

Form: item Cc1[nH]c(=O)c(C#N)cc1-c1ccncc1 ; test system HCI03; cell viability: 117

cell viability for HCI03 with input CC(C)CN(CC(O)C(Cc1ccccc1)NC(=O)OC1CCOC1)S(=O)(=O)c1ccc(N)cc1 (stereo unspecified) equals 99.1

Let me check: CC(=O)O[C@H]1Cc2ccccc2N(C(N)=O)c2ccccc21 [Eslicarbazepine acetate] , system HCI03, measured cell viability is 116

// assay HCI03, entry COc1ccc2c(c1)C(=O)N(CCc1ccc(S(=O)(=O)NC(=O)NC3CCCCC3)cc1)C(=O)C2(C)C , cell viability value = 109

Log: HCI03, molecule COc1ccc(-c2ccc3cc(C(=O)O)ccc3c2)cc1C12CC3CC(CC(C3)C1)C2 , cell viability = 81.4

With HCI03 as the test system, CC(C)OC(=O)C(C(=O)OC(C)C)=C1SC=CS1 [Malotilate] showed cell viability of 84.3

Value sought: cell viability, system HCI03, item Nc1nc(=O)c2c(CCc3ccc(C(=O)NC(CCC(=O)O)C(=O)O)cc3)c[nH]c2[nH]1.O.[Na+] (stereo unspecified) [Pemetrexed disodium hemipenta hydrate] . Result: 95.8

// returns cell viability for COc1cc(C2c3cc4c(cc3C(OC3OC5COC(C)OC5C(O)C3O)C3COC(=O)C23)OCO4)cc(OC)c1O (stereo unspecified) [Etoposide] with HCI03; value = 94.2

The molecule Cc1c(C(=O)Nc2ccc(N3CC(C)OC(C)C3)nc2)cccc1-c1ccc(OC(F)(F)F)cc1 (stereo unspecified) , when measured on HCI03, yielded cell viability of 119

Short answer on HCI03 for NNC(=O)c1ccncc1 , cell viability: 109

Let me check: CC(C)N=c1cc2n(-c3ccc(Cl)cc3)c3ccccc3nc-2cc1Nc1ccc(Cl)cc1 , system HCI03, measured cell viability is 83.9
